- Target Or Test System: human FXR (Homo sapiens)
- Experiment Notes: transient human FXR/Gal4-luciferase reporter assay
- Test Conditions: Gal4-hFXR fusion construct, luciferase reporter in HEK293 cells; overnight incubation; response as percentage of 8 μM GW-4064 control
pEC50: −log10 of the molar value.
Quantity: pEC50

Below, each entry is followed by its recorded pEC50 result.
CCOc1cccc(N(CC23CCC(c4nc(C5CC5)no4)(CC2)CC3)C(=O)C2CC(F)(F)C2)c1 [Example 53] | 6.36
O=C(N(CC12CCC(c3noc(C4(F)CC4)n3)(CC1)CC2)c1cccc(Br)c1)C12CC(F)(C1)C2 [Example 34] | 7.70

(P) CC(F)(F)c1nc(C23CCC(CN(c4cccc(OC(F)F)c4)C(=O)[C@H]4C[C@](O)(C(F)(F)F)C4)(CC2)CC3)no1 [Example 13]
(Q) CC(C)(CO)CNC(=O)N(CC12CCC(c3noc(C(C)(F)F)n3)(CC1)CC2)c1cccc(C#N)c1 [Example 100]
(R) CC(F)(F)c1nc(C23CCC(CN(C(=O)C4CCC(F)(F)CC4)c4cccc(Cl)c4)(CC2)CC3)no1 [Example 3]
Hello, I need these entries ordered by pEC50, highest reading first. Thanks! Enter labels, ranked according to the request.
R, P, Q

(A) CC(C)(C)c1noc(C23CCC(CN(C(=O)C4CCOCC4)c4cccc(P(C)(C)=O)c4)(CC2)CC3)n1 [Example 46]
(B) CC(F)(F)c1nc(C23CCC(CN(C(=O)C45CC(F)(C4)C5)c4cccc(S(=O)(=O)NC5CC5)c4)(CC2)CC3)no1 [Example 18]
Lower value for measured pEC50? Options: A , B # reply format: chosen label
A

###

- Target Or Test System: human FXR (Homo sapiens)
- Experiment Notes: transient human FXR/Gal4-luciferase reporter assay
- Test Conditions: Gal4-hFXR fusion construct, luciferase reporter in HEK293 cells; overnight incubation; response as percentage of 8 μM GW-4064 control
Quantity: EC50 (nM)

Solved entries:
NC(=O)c1nc(C23CCC(CN(c4cccc(Br)c4)C(=O)[C@H]4C[C@](O)(C(F)(F)F)C4)(CC2)CC3)no1 [Example 139] | 1450
CC(C)(C)c1nc(C23CCC(CN(C(=O)C45CC(F)(C4)C5)c4cccc(Oc5ccc(OC(F)F)cn5)c4)(CC2)CC3)no1 [Example 119] | 536
CC(F)(F)c1nc(C23CCC(CN(C(=O)N[C@H]4CC[C@H](O)CC4)c4cccc(C#N)c4)(CC2)CC3)no1 [Example 98] | 230
CC(F)(F)c1nc(C23CCC(CN(c4cc(F)cc(C#N)c4)C(=O)[C@H]4C[C@](O)(C(F)(F)F)C4)(CC2)CC3)no1 [Example 136] | 256
CC(F)(F)c1nc(C23CCC(CN(C(=O)C45CC(F)(C4)C5)c4cccc(F)c4)(CC2)CC3)no1 [Example 7] | 30

(I) CC(F)(F)c1ccc(C23CCC(CN(c4cccc(C#N)c4)C(=O)[C@H]4C[C@@](C)(O)C4)(CC2)CC3)nc1 [Example 50]
(II) CC(C)(C)c1nc(C23CCC(CN(C(=O)C45CC(F)(C4)C5)c4cccc(Nc5ccc(C(F)(F)F)cc5)c4)(CC2)CC3)no1 [Example 87]
Which value of EC50 is smaller, the one for I or the one for II ? Select an item and report its label.
I
(I: 1190 nM, II: 2000 nM)

###

- Target Or Test System: human FXR (Homo sapiens, UniProt Q96RI1)
- Construct: expressed in transfected cells; host or cells: HEK293 cells stably carrying a 5xGal4 response element-luciferase reporter, transiently transfected with pcDNA3.1-Gal4-FXR
- Sequence (Q96RI1 262-486 limits assumed): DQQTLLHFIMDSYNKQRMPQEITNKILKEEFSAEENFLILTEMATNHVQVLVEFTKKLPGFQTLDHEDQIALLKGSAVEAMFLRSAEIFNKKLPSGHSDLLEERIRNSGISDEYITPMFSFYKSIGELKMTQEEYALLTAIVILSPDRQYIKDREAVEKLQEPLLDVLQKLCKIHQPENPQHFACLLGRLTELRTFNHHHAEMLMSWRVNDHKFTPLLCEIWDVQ
- Experiment Notes: transient human FXR/Gal4-luciferase reporter assay
- Assay type: cell-based
- Test Conditions: Gal4-hFXR fusion construct, luciferase reporter in HEK293 cells; overnight incubation; response as percentage of 8 μM GW-4064 control
pEC50: −log10 of the molar value.
Quantity: pEC50

Solved entries (count: 2):
CCc1ccc(Nc2cccc(N(CC34CCC(c5noc(C(C)(C)C)n5)(CC3)CC4)C(=O)C34CC(F)(C3)C4)c2)cc1 | 6.28
Cn1nc(C2CC2)cc1C12CCC(CN(C(=O)C3CCC(F)(F)CC3)c3cccc(C#N)c3)(CC1)CC2 | 5.67

(I) CC(F)(F)c1ccc(C23CCC(CN(c4cccc(Nc5ccc(C6(C#N)CC6)cc5)c4)C(=O)[C@H]4C[C@](O)(C(F)(F)F)C4)(CC2)CC3)nc1
(II) CC(F)(F)c1nc(C23CCC(CN(C(=O)C4CCC(F)(F)CC4)c4cccc(C(F)(F)F)c4)(CC2)CC3)no1
Select one. Lower pEC50: I or II Your answer should be the label attached to the chosen record.
I
(I: 5.85, II: 6.50)

(I) CC(C)(F)c1nc(C23CCC(CN(C(=O)N[C@H]4CC[C@H](O)CC4)c4ccc(F)c(Br)c4)(CC2)CC3)no1
(II) CC(F)(F)c1nc(C23CCC(CN(C(=O)C45CC(F)(C4)C5)c4cccc(C(N)=O)c4)(CC2)CC3)no1
Hi there! Just curious which has the higher pEC50 between I and II . Return value: the label identifying the chosen record.
II
(II: 6.04, I: 5.82)

###

- Target Or Test System: human FXR (Homo sapiens)
- Experiment Notes: transient human FXR/Gal4-luciferase reporter assay
- Test Conditions: Gal4-hFXR fusion construct, luciferase reporter in HEK293 cells; overnight incubation; response as percentage of 8 μM GW-4064 control
pEC50: −log10 of the molar value.
Quantity: pEC50

CC(C)(C)c1noc(C23CCC(CN(c4cccc(P(C)(C)=O)c4)C(=O)[C@H]4C[C@](O)(C(F)(F)F)C4)(CC2)CC3)n1 | 5.40

(I) CC(F)(F)c1nc(C23CCC(CN(C(=O)NC[C@H](F)C(C)(C)O)c4cccc(Br)c4)(CC2)CC3)no1
(II) COC(=O)COc1cccc(N(CC23CCC(c4ccc5c(cnn5C)c4)(CC2)OC3)C(=O)C2CCOCC2)c1
In terms of reported pEC50, does I or II have the smaller number? State your choice using its label.
II
(II: 5.36, I: 6.64)

###

- Target Or Test System: human FXR (Homo sapiens)
- Experiment Notes: transient human FXR/Gal4-luciferase reporter assay
- Test Conditions: Gal4-hFXR fusion construct, luciferase reporter in HEK293 cells; overnight incubation; response as percentage of 8 μM GW-4064 control
Quantity: EC50 (µM)

Below are worked cases with known answers.
CC(C)(C)c1noc(C23CCC(CN(C(=O)C4CCS(=O)(=O)CC4)c4cccc(P(C)(C)=O)c4)(CC2)CC3)n1 [Example 47] | 4
CS(=O)(=O)c1cccc(N(CC23CCC(c4nc(C5CC5)no4)(CC2)CC3)C(=O)[C@H]2C[C@](O)(C(F)(F)F)C2)c1 [Example 90] | 4
CC(F)(F)c1nc(C23CCC(CN(C(=O)C45CC(F)(C4)C5)c4cccc(C(=O)O)c4)(CC2)CC3)no1 [Example 120] | 4

(I) Cn1nc(C2CC2)cc1C12CCC(CN(C(=O)C3CCC(F)(F)CC3)c3cccc(S(C)(=O)=O)c3)(CC1)CC2 [Example 77]
(II) CC(C)(C)c1nc(C23CCC(CN(C(=O)C45CC(F)(C4)C5)c4cccc(Oc5ncc(OC(F)F)cn5)c4)(CC2)CC3)no1 [Example 118]
(III) N#Cc1cc(F)cc(N(CC23CCC(c4nc(C5CC5)no4)(CC2)CC3)C(=O)[C@H]2C[C@](O)(C(F)(F)F)C2)c1 [Example 63]
(IV) N#Cc1cc(F)cc(N(CC23CCC(c4nc(C5CC5)no4)(CC2)CC3)C(=O)C2CC(F)(F)C2)c1 [Example 64]
Ascending by EC50, please. Answer format: list of labels, ordered as asked.
II, IV, III, I

###

- Target Or Test System: human FXR (Homo sapiens, UniProt Q96RI1)
- Experiment Notes: transient human FXR/Gal4-luciferase reporter assay
- Test Conditions: Gal4-hFXR fusion construct, luciferase reporter in HEK293 cells; overnight incubation; response as percentage of 8 μM GW-4064 control
Quantity: EC50 (nM)

Reference set, count: 4
CCOc1cccc(N(CC23CCC(c4noc(C(C)(F)F)n4)(CC2)CC3)C(=O)C23CC(F)(C2)C3)c1 | 91
COc1cccc(N(CC23CCC(c4nc(C5CC5)no4)(CC2)CC3)C(=O)C23CC(F)(C2)C3)c1 | 345
N#Cc1cccc(N(CC23CCC(c4noc(C(F)(F)F)n4)(CC2)CC3)C(=O)C2CCOCC2)c1 | 518
Cn1nc(C2CC2)cc1C12CCC(CN(c3cccc(C#N)c3)C(=O)[C@H]3C[C@](O)(C(F)(F)F)C3)(CC1)CC2 | 1380

(A) Cn1nc(C2CC2)cc1C12CCC(CN(C(=O)C34CC(F)(C3)C4)c3cccc(S(C)(=O)=O)c3)(CC1)CC2
(B) CCOc1ccc(Nc2cccc(N(CC34CCC(c5nc(C(C)(C)C)no5)(CC3)CC4)C(=O)C34CC(F)(C3)C4)c2)cc1
(C) CC(C)Oc1cccc(N(CC23CCC(c4noc(C(C)(F)F)n4)(CC2)CC3)C(=O)C23CC(F)(C2)C3)c1
Put the entries in order of EC50, starting with the largest number. Sort and list the labels as requested.
A, B, C

(I) CC(F)(F)c1nc(C23CCC(CN(C(=O)C45CC(F)(C4)C5)c4cccc(P(C)(C)=O)c4)(CC2)CC3)no1
(II) CC(C)(C)c1noc(C23CCC(CN(c4cccc(Br)c4)C(=O)[C@H]4C[C@](O)(C(F)(F)F)C4)(CC2)CC3)n1
(III) COC(=O)CCc1cccc(N(CC23CCC(c4ccc(N(C)C)cc4)(CC2)CC3)C(=O)C2CCCCC2)c1
(IV) CC(C)(C)c1noc(C23CCC(CN(c4cccc(C#N)c4)C(=O)[C@H]4C[C@](O)(C(F)(F)F)C4)(CC2)CC3)n1
Place the items in sequence of falling EC50. Answer by listing the labels in the order asked for.
I, III, IV, II
(I: 4000 nM, III: 1120 nM, IV: 568 nM, II: 135 nM)
